Exercise: for every item that follows, state its recorded log K.
- Test Summary: Lipophilicity, log K of the compound by HPLC method
- Type: physicochemical

Entry O=C(Nc1ccccc1)c1ccc2cc(O)ccc2c1 has what log K?
0.6612

Entry COc1ccccc1NC(=O)c1ccc2cc(O)ccc2c1 has what log K?
0.6039

Entry O=C(Nc1ccc(C(F)(F)F)cc1)c1ccc2cc(O)ccc2c1 has what log K?
1.0133

Entry O=C(Nc1cccc([N+](=O)[O-])c1)c1ccc2cc(O)ccc2c1 has what log K?
0.8533

Entry O=C(Nc1ccccc1Cl)c1ccc2cc(O)ccc2c1 has what log K?
0.6777

Entry Cc1ccccc1NC(=O)c1ccc2cc(O)ccc2c1 has what log K?
0.369

Entry COc1ccc(NC(=O)c2ccc3cc(O)ccc3c2)cc1 has what log K?
0.3313

Entry O=C(Nc1ccc([N+](=O)[O-])cc1)c1ccc2cc(O)ccc2c1 has what log K?
0.5911

Entry O=C(Nc1ccccc1F)c1ccc2cc(O)ccc2c1 has what log K?
0.4921

Entry Cc1cccc(NC(=O)c2ccc3cc(O)ccc3c2)c1 has what log K?
0.6086

Entry O=C(Nc1cccc(F)c1)c1ccc2cc(O)ccc2c1 has what log K?
0.5766

Entry O=C(Nc1ccc(Cl)cc1)c1ccc2cc(O)ccc2c1 has what log K?
0.7947

Entry O=C(Nc1ccc(F)cc1)c1ccc2cc(O)ccc2c1 has what log K?
0.6726

Entry O=C(Nc1ccccc1C(F)(F)F)c1ccc2cc(O)ccc2c1 has what log K?
0.5623

Entry Cc1ccc(NC(=O)c2ccc3cc(O)ccc3c2)cc1 has what log K?
0.6227

Entry O=C(Nc1ccc(Br)cc1)c1ccc2cc(O)ccc2c1 has what log K?
0.8884

Entry O=C(Nc1cccc(Cl)c1)c1ccc2cc(O)ccc2c1 has what log K?
0.7684

Entry COc1cccc(NC(=O)c2ccc3cc(O)ccc3c2)c1 has what log K?
0.4463

Entry O=C(Nc1ccccc1Br)c1ccc2cc(O)ccc2c1 has what log K?
0.7486

Entry O=C(Nc1cccc(C(F)(F)F)c1)c1ccc2cc(O)ccc2c1 has what log K?
0.9558

Entry O=C(Nc1cccc(Br)c1)c1ccc2cc(O)ccc2c1 has what log K?
0.8767

Entry O=C(Nc1ccccc1[N+](=O)[O-])c1ccc2cc(O)ccc2c1 has what log K?
0.8553
